- measurement target: T1, transforming growth factor-beta 1 (TGF-β1) (UniProt P01137 279-390)
- T1 construct: also called TGFb1; TGFB1
- T1 sequence (P01137 279-390 limits assumed): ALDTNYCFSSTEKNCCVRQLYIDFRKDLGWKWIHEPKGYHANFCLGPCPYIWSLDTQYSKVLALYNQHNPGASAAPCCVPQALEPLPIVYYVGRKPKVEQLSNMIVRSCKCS
- experiment notes: ELISA, peptide on streptavidin plate, ligand 100 ng/ml
Ends that are not written are not given here.
Each record here notes measured ELISA OD450.
Report only the number, with the unit OD450 understood.

binder="RRRFQKTKNLLTGETEADPEG (also: biotinylated, site not given here) [CLPTM1 peptide fragment of SEQ ID NO: 18]" value=0.002
binder="DTLMNLHVYISEHEHFTDFNATSALFWEQHDLVYGDWTSG (also: biotinylated, site not given here, also called peptide 29; GT5) [CLPTM1 peptide fragment of SEQ ID NO: 36]" value=1.64

Read the next record carefully.
Ask | Quote ELISA OD450 reported for TKSGFHPDPRQKALYRRLATVHMSRMINKYKRRRFQKTKN (also: biotinylated, site not given here, also called peptide 30; GT6) [CLPTM1 peptide fragment of SEQ ID NO: 37] please.
Reply | 0.389
